Data origin: patent US20250034268A1

Recorded FOB, Fold Over Background for the following binders
Measured target: T1, human BCMA expressed on the cell surface (human, UniProt Q02223 1-184)
T1 construct: The same molecule is used here for hBCMA-CHO GS cells and for the endogenous BCMA of the myeloma lines; also called Human BCMA CHO-S cell; H929
T1 sequence: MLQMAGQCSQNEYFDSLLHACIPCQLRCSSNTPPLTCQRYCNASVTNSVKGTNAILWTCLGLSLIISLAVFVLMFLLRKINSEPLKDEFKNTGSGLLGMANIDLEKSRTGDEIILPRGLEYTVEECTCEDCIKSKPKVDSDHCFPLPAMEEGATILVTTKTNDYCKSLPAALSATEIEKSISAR
Test name: flow cytometry, 10 nM antibody on human BCMA CHO-S cells against CHO-S cells
Answer format: value, then unit.

antibody ADI-38497 (antibody, V domains shown) VH: QLQLQESGPGLVKPSETLSLTCTVSGGSIVSSSYYWTWIRQPPGKGLEWIGSISIAGSTYYNPSLKSRVTISVDTSKNQFSLKLSSVTAADTAVYYCARDRGDQILDVWSQGTMVTVSS VL: DIQMTQSPSSLSASVGDRVTITCRASQSISRYLNWYQQKPGKAPKLLIYAASSLQSGVPSRFSGSGSGTDFTLTISSLQPEDFATYYCQQKYFDITFGGGTKVEIK :: 8 fold
anti-BCMA parent antibody ADI-34861 (antibody, V domains shown, Tested as IgG (captured by anti-human Fc probe)) VH: QLQLQESGPGLVKPSETLSLTCTVSGGSISSSSYYWGWIRQPPGKGLEWIGSISYSGSTYYNPSLKSRVTISVDTSKNQFSLKLSSVTAADTAVYYCARDRGDTILDVWGQGTMVTVSS VL: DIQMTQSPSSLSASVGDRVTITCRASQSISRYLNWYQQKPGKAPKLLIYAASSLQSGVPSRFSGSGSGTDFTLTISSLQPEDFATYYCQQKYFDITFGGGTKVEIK :: 4 fold
antibody ADI-38481 (antibody, V domains shown) VH: QVQLVQSGAEVKKPGSSVKVSCKASGGTFSNDVISWVRQAPGQGLEWMGVIIPIFGIANYAQKFQGRVTITADESTSTAYMELSSLRSEDTAVYYCARGRGYYSSWLLDIWGQGTMVTVSS VL: DIQMTQSPSSLSASVGDRVTITCQASQDITNYLNWYQQKPGKAPKLLIYDASNLETGVPSRFSGSGSGTDFTFTISSLQPEDIATYYCQQAFDLITFGGGTKVEIK :: 10 fold
antibody ADI-38484 (antibody, V domains shown) VH: QVQLVQSGAEVKKPGSSVKVSCKASGGTFSNDVISWVRQAPGQGLEWMGVIIPIFGIANYAQKFQGRVTITADESTSTAYMELSSLRSEDTAVYYCARGRGYYSSWLHDIWGQGTMVTVSS VL: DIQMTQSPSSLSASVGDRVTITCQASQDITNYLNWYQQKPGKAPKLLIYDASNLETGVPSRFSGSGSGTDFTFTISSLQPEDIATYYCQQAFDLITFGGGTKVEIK :: 11 fold

Now look at this one.
# lookup: FOB, Fold Over Background of antibody ADI-38491 (antibody, V domains shown) VH: QLQLQESGPGLVKPSETLSLTCTVSGGSIVSSSYYWTWIRQPPGKGLEWIGSISIAGSTYYNPSLKSRVTISVDTSKNQFSLKLSSVTAADTAVYYCARDRGDTILDVWGQGTMVTVSS VL: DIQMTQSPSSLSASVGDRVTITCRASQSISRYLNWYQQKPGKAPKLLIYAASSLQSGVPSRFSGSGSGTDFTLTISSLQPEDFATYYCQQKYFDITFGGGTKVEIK
4 fold
